Target: T1, human EphA6 (Homo sapiens, UniProt Q9UF33)
T1 construct: a protein of the extracellular region of each human Eph receptor fused with the SEAP protein and the His tag; made in house; host or cells: Expi293F cells (culture supernatant)
T1 sequence (Q9UF33 23-550 limits assumed): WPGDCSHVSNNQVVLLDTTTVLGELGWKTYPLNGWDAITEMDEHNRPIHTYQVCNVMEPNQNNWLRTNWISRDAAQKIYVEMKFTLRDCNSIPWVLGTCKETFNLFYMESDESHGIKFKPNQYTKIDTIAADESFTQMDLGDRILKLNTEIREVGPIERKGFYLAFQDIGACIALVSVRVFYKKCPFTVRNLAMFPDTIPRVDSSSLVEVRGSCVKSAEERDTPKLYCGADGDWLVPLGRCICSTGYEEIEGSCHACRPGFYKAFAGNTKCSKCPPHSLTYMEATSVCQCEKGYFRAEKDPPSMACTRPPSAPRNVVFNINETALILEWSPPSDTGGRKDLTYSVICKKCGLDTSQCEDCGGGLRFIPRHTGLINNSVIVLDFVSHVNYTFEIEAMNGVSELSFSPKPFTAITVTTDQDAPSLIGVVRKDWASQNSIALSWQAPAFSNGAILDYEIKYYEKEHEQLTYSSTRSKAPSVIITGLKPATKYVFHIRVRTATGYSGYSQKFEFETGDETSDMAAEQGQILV
Assay: Selectivity ELISA of humanized antibodies for human Eph receptor
Format: binding
Conditions: coated protein 1 nM
quantity: hEphA6-SEAP-: absorbance at 450 nm, percentage with respect to hEphA4-SEAP-His as 100% (%)

{"columns": ["molecule", "reported"],
 "data": [
  ["143 (antibody, V domains shown, synthetic humanized antibody heavy chain variable region sequence; synthetic humanized antibody light chain variable region sequence) VH: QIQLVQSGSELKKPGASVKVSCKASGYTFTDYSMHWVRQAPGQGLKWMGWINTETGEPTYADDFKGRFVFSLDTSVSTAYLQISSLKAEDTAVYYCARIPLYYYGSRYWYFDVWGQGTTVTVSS VL: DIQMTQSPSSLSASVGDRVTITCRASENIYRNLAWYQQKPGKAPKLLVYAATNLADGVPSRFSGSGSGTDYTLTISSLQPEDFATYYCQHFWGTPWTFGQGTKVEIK", 9.9],
  ["77 (antibody, V domains shown, synthetic humanized antibody heavy chain variable region sequence; synthetic humanized antibody light chain variable region sequence) VH: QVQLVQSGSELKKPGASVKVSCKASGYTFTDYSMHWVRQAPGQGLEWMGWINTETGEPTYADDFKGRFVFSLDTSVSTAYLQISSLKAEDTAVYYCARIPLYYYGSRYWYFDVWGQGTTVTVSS VL: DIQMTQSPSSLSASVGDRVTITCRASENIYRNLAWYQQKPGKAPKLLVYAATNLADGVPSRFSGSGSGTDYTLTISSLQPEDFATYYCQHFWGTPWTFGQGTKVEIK", 6.0],
  ["138 (antibody, V domains shown, synthetic humanized antibody heavy chain variable region sequence; synthetic humanized antibody light chain variable region sequence) VH: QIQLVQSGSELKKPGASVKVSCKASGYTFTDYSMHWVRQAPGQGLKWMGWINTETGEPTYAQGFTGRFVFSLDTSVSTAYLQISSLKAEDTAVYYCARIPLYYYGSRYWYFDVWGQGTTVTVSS VL: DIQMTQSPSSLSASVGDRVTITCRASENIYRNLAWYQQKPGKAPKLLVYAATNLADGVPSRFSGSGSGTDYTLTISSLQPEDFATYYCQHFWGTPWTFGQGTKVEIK", 10.2],
  ["71 (antibody, V domains shown, synthetic humanized antibody heavy chain variable region sequence; synthetic humanized antibody light chain variable region sequence) VH: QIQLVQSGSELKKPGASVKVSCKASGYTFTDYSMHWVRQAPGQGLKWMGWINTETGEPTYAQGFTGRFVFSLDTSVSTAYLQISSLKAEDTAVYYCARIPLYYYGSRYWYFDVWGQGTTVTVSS VL: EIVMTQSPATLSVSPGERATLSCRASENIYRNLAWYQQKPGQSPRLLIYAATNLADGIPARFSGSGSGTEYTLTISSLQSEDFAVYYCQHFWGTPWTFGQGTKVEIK", 9.2],
  ["145 (antibody, V domains shown, synthetic humanized antibody heavy chain variable region sequence; synthetic humanized antibody light chain variable region sequence) VH: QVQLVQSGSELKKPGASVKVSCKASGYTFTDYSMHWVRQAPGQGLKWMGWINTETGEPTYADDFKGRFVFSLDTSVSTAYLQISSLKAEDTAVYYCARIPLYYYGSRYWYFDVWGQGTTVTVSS VL: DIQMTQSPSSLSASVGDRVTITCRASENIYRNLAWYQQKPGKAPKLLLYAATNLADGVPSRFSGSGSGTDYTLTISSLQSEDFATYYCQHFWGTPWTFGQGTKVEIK", 8.6],
  ["95 (antibody, V domains shown, constant regions without entry; synthetic humanized antibody light chain variable region sequence; synthetic humanized antibody heavy chain variable region sequence) VL: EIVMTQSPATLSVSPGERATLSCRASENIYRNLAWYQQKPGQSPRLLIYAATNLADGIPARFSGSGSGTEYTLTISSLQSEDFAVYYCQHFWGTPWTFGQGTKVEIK VH: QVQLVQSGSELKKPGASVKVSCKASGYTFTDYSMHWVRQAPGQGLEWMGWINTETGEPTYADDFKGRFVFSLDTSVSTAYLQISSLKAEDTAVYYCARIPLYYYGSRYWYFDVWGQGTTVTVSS", 7.0],
  ["157 (antibody, V domains shown, synthetic humanized antibody heavy chain variable region sequence; synthetic humanized antibody light chain variable region sequence) VH: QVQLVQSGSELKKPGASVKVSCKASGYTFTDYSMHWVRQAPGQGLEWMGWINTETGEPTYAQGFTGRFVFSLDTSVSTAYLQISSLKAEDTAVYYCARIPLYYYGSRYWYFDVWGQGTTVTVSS VL: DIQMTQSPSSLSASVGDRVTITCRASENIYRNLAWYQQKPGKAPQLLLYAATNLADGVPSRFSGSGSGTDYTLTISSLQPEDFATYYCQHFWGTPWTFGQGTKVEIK", 9.0]
]}
